This collection of values is drawn from paper PMC6160541.

Recorded measurements of IC50, one per entry
# Test system: A549R
# experiment.description: MTT cytotoxicity assay, A549R (cisplatin-resistant)
# Assay type: cell-based, human
# condition: MTT, 48 h

- compound: "O=C(CCC(=O)[O][Pt-2]12([OH])([NH2+][C@@H]3CCCC[C@H]3[NH2+]1)[O]C(=O)C(=O)[O]2)NC[C@H]1OC(O)[C@H](O)[C@@H](O)[C@@H]1O (stereo partly drawn) [6d]"
  IC50: "47 µM"
- compound: "CC(=O)OC[C@H]1O[C@H](NC(=O)CCC(=O)[O][Pt-2]23([OH])([NH2+][C@@H]4CCCC[C@H]4[NH2+]2)[O]C(=O)C(=O)[O]3)[C@@H](OC(C)=O)[C@@H](OC(C)=O)[C@@H]1OC(C)=O [6c]"
  IC50: "> 100 µM"
- compound: "CC(=O)OC[C@H]1O[C@@H](NC(=O)CCC(=O)[O][Pt-2]23([OH])([NH2+][C@@H]4CCCC[C@H]4[NH2+]2)[O]C(=O)C(=O)[O]3)[C@H](OC(C)=O)[C@@H](OC(C)=O)[C@H]1OC(C)=O [5c]"
  IC50: "74.1 µM"

###

# Tested on: LNCaP
# experiment.description: MTT cytotoxicity assay, LNCaP
# Assay type: cell-based, human
# condition: 48 h
IC50 less than 20 µM is MET; IC50 greater than or equal to 20 µM is NOT MET.

- compound: "CC(=O)OC[C@H]1O[C@@H](O[C@H]2[C@H](OC(C)=O)[C@@H](OC(C)=O)[C@H](NC(=O)CCC(=O)[O][Pt-2]34([OH])([NH2+][C@@H]5CCCC[C@H]5[NH2+]3)[O]C(=O)C(=O)[O]4)O[C@@H]2COC(C)=O)[C@H](OC(C)=O)[C@@H](OC(C)=O)[C@H]1OC(C)=O"
  assigned.label: "MET"
- compound: "CC(=O)OC[C@H]1O[C@@H](NC(=O)CCC(=O)[O][Pt-2]23([OH])([NH2+][C@@H]4CCCC[C@H]4[NH2+]2)[O]C(=O)C(=O)[O]3)[C@H](OC(C)=O)[C@@H](OC(C)=O)[C@H]1OC(C)=O"
  assigned.label: "NOT MET"
- compound: "N.N.[Cl-].[Cl-].[OH-].[OH-].[Pt+4] [2a, reference compound]"
  assigned.label: "NOT MET"
- compound: "N.N.[Cl][Pt][Cl] [1a, cisplatin, reference compound]"
  assigned.label: "NOT MET"
- compound: "N.N.O=C(CCC(=O)[O][Pt]([OH])([Cl])[Cl])NCCO[C@H]1O[C@H](CO)[C@@H](O)[C@H](O)[C@@H]1O"
  assigned.label: "NOT MET"

###

Recorded measurements of IC50, one per entry
# Test system: HepG-2
# experiment.description: MTT cytotoxicity assay, HepG-2
# Type: cell-based, human
# condition: 48 h
observable: IC50 (µM)

- compound: "CC(=O)OC[C@H]1O[C@@H](NC(=O)CCC(=O)[O][Pt-2]([NH3+])([NH3+])([OH])([Cl])[Cl])[C@H](OC(C)=O)[C@@H](OC(C)=O)[C@@H]1O[C@H]1O[C@H](COC(C)=O)[C@@H](OC(C)=O)[C@H](OC(C)=O)[C@H]1OC(C)=O [3c]"
  measured.on: "HepG-2"
  observable: "IC50"
  op: "="
  obs.value: 3.27
- compound: "NC1CCCCC1N.O=C1[O][Pt]([OH])([OH])[O]C1=O [4a, reference compound]"
  measured.on: "HepG-2"
  observable: "IC50"
  op: ">"
  obs.value: 100
- compound: "O=C(CCC(=O)[O][Pt-2]12([OH])([NH2+][C@@H]3CCCC[C@H]3[NH2+]1)[O]C(=O)C(=O)[O]2)NC[C@H]1OC(O)[C@H](O)[C@@H](O)[C@@H]1O (some centres unmarked) [6d]"
  measured.on: "HepG-2"
  observable: "IC50"
  op: "="
  obs.value: 4.1
- compound: "CC(=O)OC[C@H]1O[C@@H](NC(=O)CCC(=O)[O][Pt-2]23([OH])([NH2+][C@@H]4CCCC[C@H]4[NH2+]2)[O]C(=O)C(=O)[O]3)[C@H](OC(C)=O)[C@@H](OC(C)=O)[C@@H]1O[C@H]1O[C@H](COC(C)=O)[C@@H](OC(C)=O)[C@H](OC(C)=O)[C@H]1OC(C)=O [4c]"
  measured.on: "HepG-2"
  observable: "IC50"
  op: "="
  obs.value: 10.7
- compound: "CC(=O)OC[C@H]1O[C@H](NC(=O)CCC(=O)[O][Pt-2]23([OH])([NH2+][C@@H]4CCCC[C@H]4[NH2+]2)[O]C(=O)C(=O)[O]3)[C@@H](OC(C)=O)[C@@H](OC(C)=O)[C@@H]1OC(C)=O [6c]"
  measured.on: "HepG-2"
  observable: "IC50"
  op: "="
  obs.value: 50.9
- compound: "O=C1[O][Pt]2([NH][C@@H]3CCCC[C@H]3[NH]2)[O]C1=O [3a, oxaliplatin, reference compound]"
  measured.on: "HepG-2"
  observable: "IC50"
  op: "="
  obs.value: 6.64
- compound: "N.N.[Cl-].[Cl-].[OH-].[OH-].[Pt+4] [2a, reference compound]"
  measured.on: "HepG-2"
  observable: "IC50"
  op: "="
  obs.value: 50
- compound: "O=C(CCC(=O)[O][Pt-2]12([OH])([NH2+][C@@H]3CCCC[C@H]3[NH2+]1)[O]C(=O)C(=O)[O]2)NCCCO[C@@H]1O[C@H](CO)[C@H](O)[C@H](O)[C@H]1O [5d]"
  measured.on: "HepG-2"
  observable: "IC50"
  op: "="
  obs.value: 1.77
